Data provenance: ChEMBL document CHEMBL1201862

- System: RPMI-8226
- ASSAY_PROCEDURE: NCI tumour cell line growth inhibition, 48 h
The source made the active and inactive calls. No stated cut-off is given here; in the data, active = GI50 up to about 1.1 µM and inactive = higher.
// one of yes (1) = active, no (0) = inactive, no free text

Below are worked cases with known answers.
[
  {
    "MOLECULE": "COC(=O)C1=CC2C=CC(C1C(=O)OC)C1C(C(=O)OC)=C(C(=O)OC)C(C(=O)OC)=C(C(=O)OC)C21OC (stereo unspecified)",
    "CATEGORY": "no (0)"
  },
  {
    "MOLECULE": "COc1cc(/C=C2\\CCC(C)C3=C2NC(=S)NC3c2cc(OC)c(OC)c(OC)c2)cc(OC)c1OC (stereo unspecified)",
    "CATEGORY": "no (0)"
  },
  {
    "MOLECULE": "Nn1c(Cc2ccc(Cl)cc2)n[nH]c1=O",
    "CATEGORY": "no (0)"
  },
  {
    "MOLECULE": "O=[N+]([O-])c1ccc(Cl)c(/C=N/C23CC4CC(CC(C4)C2)C3)c1",
    "CATEGORY": "no (0)"
  },
  {
    "MOLECULE": "O=[N+]([O-])C(C(Cl)=C(Cl)Cl)=C(n1nnc2ccccc21)n1nnc2ccccc21",
    "CATEGORY": "no (0)"
  }
]

Tell me the assay call for `COc1ccc2nc(-c3ccc(O)cc3)sc2c1` please. yes (1)

`COc1cc(/C=C(\C#N)C(N)=O)cc(Br)c1O` , same question. no (0)

What about this molecule? `N#C/C(C(=O)Nc1ccc(Cl)cc1)=C(/N)N1CCOCC1` no (0)

Note, next up: O=P(c1ccccc1)(c1ccccc1)C1CC=C(c2ccccc2)C2(CCCC2)C1 (stereo unspecified) no (0)

And the next one, Cc1ccc(S(=O)OC23CC4CC(CC(C4)C2)C3)cc1 (stereo unspecified) ? no (0)

How about `O=C1/C(=C/c2ccc([N+](=O)[O-])cc2)CCCc2ccccc21` ? no (0)

----------
- System: U-251
- ASSAY_PROCEDURE: NCI tumour cell line growth inhibition, 48 h
Activity calls are given as the source filed them. Cut-off read from the data, not from the text of the source: active = GI50 up to about 1.1 µM and inactive = higher.
ASSAY_ENDPOINT: GI50

[
  {
    "COMPOUND": "CC(C)OP(=O)(OC(C)C)/C(C#N)=C/c1ccco1",
    "REPORTED_VALUE": "> 100 µM (inactive)"
  },
  {
    "COMPOUND": "CC(=O)N1N=C(N)CC1=O",
    "REPORTED_VALUE": "> 100 µM (inactive)"
  },
  {
    "COMPOUND": "c1c(N2CCOCC2)s[s+]c1N1CCOCC1",
    "REPORTED_VALUE": "> 100 µM (inactive)"
  },
  {
    "COMPOUND": "CCO/C=C1\\SC(=S)N(c2ccc(OCC)cc2)C1=O",
    "REPORTED_VALUE": "48 µM (inactive)"
  },
  {
    "COMPOUND": "CCOC(=O)C(=O)Nc1ccccc1C(C)C",
    "REPORTED_VALUE": "> 100 µM (inactive)"
  }
]

GET /values?readout=GI50&item= `N#Cc1c(-c2ccccc2)cc(Nc2cccc(C(F)(F)F)c2)n2c1nc1ccccc12` 0.611 µM (active)

// next record `CCOC(=O)/C(C#N)=C(N)/C(=N\Nc1cccc(C(F)(F)F)c1)C(=O)OCC` > 100 µM (inactive)

Also need OC1C[C@H](c2ccccc2)C2(C(O)c3ccccc3C2O)[C@@H](c2ccccc2)C1 (stereo partly specified) , thanks. > 100 µM (inactive)

Also COC1(OC)CCC2(C)OC(c3ccccc3)C1O2 (stereo unspecified) ? > 100 µM (inactive)

Entry to check: CC12CCC3C(CCC4(O)C=CCCC34C=O)C1(O)CC(O)C2c1ccc(=O)oc1 (stereo unspecified) 0.08 µM (active)

Repeat for the following compound: `CCOC(=O)c1c(Br)c(-c2ccc([N+](=O)[O-])cc2)c(Br)n1C` > 10 µM (inactive)
